# Lookup of reported pEC50 keyed by entry
study-system: T1, human ROR1 (full-length, on the cell surface) (human, UniProt Q01973 30-937)
T1 construct: whole, on cells; the tumour cell lines carry their own ROR1; also called Ba/F3-ROR1 cells; Jeko-1
T1 sequence (Q01973 30-937): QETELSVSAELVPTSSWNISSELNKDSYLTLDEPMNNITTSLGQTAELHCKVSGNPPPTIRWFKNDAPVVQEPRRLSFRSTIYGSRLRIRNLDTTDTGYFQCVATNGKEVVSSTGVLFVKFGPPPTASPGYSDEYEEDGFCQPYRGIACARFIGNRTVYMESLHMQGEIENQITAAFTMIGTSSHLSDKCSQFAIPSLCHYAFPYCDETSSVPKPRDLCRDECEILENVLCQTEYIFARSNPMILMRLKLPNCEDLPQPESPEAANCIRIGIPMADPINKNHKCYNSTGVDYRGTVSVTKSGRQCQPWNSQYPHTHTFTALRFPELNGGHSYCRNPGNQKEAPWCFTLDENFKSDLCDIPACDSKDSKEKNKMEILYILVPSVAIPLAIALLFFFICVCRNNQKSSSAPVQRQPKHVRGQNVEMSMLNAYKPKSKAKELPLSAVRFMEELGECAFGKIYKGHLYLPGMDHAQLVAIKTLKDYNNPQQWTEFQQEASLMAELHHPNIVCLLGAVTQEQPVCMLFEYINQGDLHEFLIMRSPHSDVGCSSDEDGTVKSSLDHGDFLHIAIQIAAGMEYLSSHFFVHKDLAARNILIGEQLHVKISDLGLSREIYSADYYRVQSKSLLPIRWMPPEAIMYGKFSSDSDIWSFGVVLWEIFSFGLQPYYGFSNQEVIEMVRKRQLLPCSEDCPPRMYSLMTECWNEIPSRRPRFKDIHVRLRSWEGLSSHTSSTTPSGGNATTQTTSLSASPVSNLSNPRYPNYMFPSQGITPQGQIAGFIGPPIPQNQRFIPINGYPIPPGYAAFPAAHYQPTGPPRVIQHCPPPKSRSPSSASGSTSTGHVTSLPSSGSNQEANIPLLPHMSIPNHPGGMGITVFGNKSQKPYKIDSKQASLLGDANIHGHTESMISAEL
measurement-protocol: flow cytometry, HT-29 cells
pEC50 here: minus log base 10 of the concentration, concentration in moles per litre.

>  <binder>
19F6-Hu34 (antibody, human IgG1, kappa, V domains shown, humanized, human IgG1 / kappa) VH: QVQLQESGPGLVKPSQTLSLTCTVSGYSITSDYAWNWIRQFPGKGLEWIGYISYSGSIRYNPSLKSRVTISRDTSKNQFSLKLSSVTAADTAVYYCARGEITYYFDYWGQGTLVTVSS VL: DIQMTQSPSSLSASVGDRVTITCQTSTDIDDDLNWYQQKPGKPPKLLISEGNTLETGVPSRFSGSGSGTDFTFTISSLQPEDIADYYCLQSNDLPLTFGAGTKLEIKR

>  <pEC50>
9.72

$$$$
>  <binder>
19F6-Hu14 (antibody, human IgG1, kappa, V domains shown, humanized, human IgG1 / kappa) VH: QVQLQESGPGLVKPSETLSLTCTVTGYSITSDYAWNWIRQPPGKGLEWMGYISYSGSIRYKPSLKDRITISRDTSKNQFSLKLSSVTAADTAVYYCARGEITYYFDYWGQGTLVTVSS VL: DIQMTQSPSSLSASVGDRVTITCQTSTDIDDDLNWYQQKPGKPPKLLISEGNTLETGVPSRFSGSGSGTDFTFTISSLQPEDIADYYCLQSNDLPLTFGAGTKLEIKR

>  <pEC50>
10.00

$$$$
>  <binder>
38F8-Hu64 (antibody, human IgG1, kappa, V domains shown, humanized, human IgG1 / kappa) VH: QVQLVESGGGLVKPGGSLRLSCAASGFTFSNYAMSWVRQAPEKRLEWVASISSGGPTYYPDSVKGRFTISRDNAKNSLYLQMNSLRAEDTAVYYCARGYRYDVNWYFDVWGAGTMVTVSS VL: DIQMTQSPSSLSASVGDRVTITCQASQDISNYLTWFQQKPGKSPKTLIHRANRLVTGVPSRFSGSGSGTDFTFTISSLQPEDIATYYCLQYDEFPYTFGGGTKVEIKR

>  <pEC50>
9.38

$$$$

## Input Tell me its pEC50 given 3D8-Hu86 (antibody, human IgG1, kappa, V domains shown, humanized, human IgG1 / kappa) VH: EVQLVESGGGLVQPGGSLRLSCAASGFTFSSYAMSWVRQAPEKRLEWVSSISSGGSTYYPDSVKGRFTISRDNSKNTLYLQMNSLRAEDTAVYYCARVNYYGYGDYAMDYWGQGTLVTVSS VL: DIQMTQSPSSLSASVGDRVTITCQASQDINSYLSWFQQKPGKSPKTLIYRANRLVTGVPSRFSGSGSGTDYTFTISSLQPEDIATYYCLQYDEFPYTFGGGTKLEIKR as the entry.
## Output 9.55

## Input Tell me its pEC50 given 19F6-Hu13 (antibody, human IgG1, kappa, V domains shown, humanized, human IgG1 / kappa) VH: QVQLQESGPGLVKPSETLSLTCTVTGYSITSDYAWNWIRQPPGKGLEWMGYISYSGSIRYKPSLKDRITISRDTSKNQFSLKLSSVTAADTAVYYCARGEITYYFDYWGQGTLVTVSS VL: DIQMTQSPSSLSASVGDRVTITCRASTDIDDDMNWYQQKPGKAPKLLIYEGNTLQSGVPSRFSGSGYGTDFTLTISSLQPEDFATYYCLQSNDLPLTFGQGTKLEIKR as the entry.
## Output 9.12
